molecular target: Fuc(a1-2)Gal(b1-3)GlcNAc; experiment: glycan array binding signal (z-score within array); higher = stronger binding; conditions: glycan notation: IUPAC condensed, linker removed
The entries come from a sample that favours the strongest signals as a whole.
Readout label: glycan array binding signal (z-score)
Respond using a number only.

Which measured glycan array binding signal (z-score) value corresponds to OS9 (Arabidopsis thaliana) (protein) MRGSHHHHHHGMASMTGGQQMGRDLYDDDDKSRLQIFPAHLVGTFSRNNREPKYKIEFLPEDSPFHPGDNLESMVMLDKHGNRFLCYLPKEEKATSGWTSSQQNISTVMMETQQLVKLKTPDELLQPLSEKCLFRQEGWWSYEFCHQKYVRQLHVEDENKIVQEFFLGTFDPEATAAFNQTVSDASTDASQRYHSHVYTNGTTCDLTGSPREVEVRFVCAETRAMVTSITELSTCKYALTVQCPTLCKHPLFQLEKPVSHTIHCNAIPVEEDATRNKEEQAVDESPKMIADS ?
-0.466
